Molecular target: UniProt:P0DMS8
Sequence (whole entry): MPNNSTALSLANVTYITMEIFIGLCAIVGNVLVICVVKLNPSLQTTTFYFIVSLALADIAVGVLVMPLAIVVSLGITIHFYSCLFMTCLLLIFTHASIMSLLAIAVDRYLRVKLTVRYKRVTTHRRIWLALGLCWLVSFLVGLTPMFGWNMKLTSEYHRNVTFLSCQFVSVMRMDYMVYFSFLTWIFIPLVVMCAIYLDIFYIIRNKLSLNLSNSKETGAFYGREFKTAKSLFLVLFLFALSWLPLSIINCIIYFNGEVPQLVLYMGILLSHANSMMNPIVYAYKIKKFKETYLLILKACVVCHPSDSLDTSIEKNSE
Test: Irreversible inhibition of […]-AB-MECA binding to human adenosine A3 receptor at 100 nM
Mark condition not met for inhibition values under 60%, and condition met for everything at or above.

Exercise: hey, is inhibition for this one >= 60%? CCn1cc2c(nc(NC(=O)Nc3ccc(N(CCCl)CCCl)cc3)n3nc(-c4ccco4)nc23)n1
Key: condition not met

Exercise: hey, is inhibition for this one >= 60%? Cn1cc2c(nc(NC(=O)Nc3ccc(N(CCCl)CCCl)cc3)n3nc(-c4ccco4)nc23)n1
Key: condition not met

Exercise: hey, is inhibition for this one >= 60%? CCCn1cc2c(nc(NC(=O)Nc3ccc(S(=O)(=O)F)cc3)n3nc(-c4ccco4)nc23)n1
Key: condition met

Exercise: hey, is inhibition for this one >= 60%? CCCCn1cc2c(nc(NC(=O)Nc3ccc(S(=O)(=O)F)cc3)n3nc(-c4ccco4)nc23)n1
Key: condition met

Exercise: hey, is inhibition for this one >= 60%? CCCCn1cc2c(nc(NC(=O)Nc3ccc(N(CCCl)CCCl)cc3)n3nc(-c4ccco4)nc23)n1
Key: condition not met

Exercise: hey, is inhibition for this one >= 60%? CCn1cc2c(nc(NC(=O)Nc3ccc(S(=O)(=O)F)cc3)n3nc(-c4ccco4)nc23)n1
Key: condition met

Exercise: hey, is inhibition for this one >= 60%? CCCn1cc2c(nc(NC(=O)Nc3ccc(N(CCCl)CCCl)cc3)n3nc(-c4ccco4)nc23)n1
Key: condition not met

====

Biological target: Adenosine receptor A3 (Homo sapiens)
Sequence (whole entry): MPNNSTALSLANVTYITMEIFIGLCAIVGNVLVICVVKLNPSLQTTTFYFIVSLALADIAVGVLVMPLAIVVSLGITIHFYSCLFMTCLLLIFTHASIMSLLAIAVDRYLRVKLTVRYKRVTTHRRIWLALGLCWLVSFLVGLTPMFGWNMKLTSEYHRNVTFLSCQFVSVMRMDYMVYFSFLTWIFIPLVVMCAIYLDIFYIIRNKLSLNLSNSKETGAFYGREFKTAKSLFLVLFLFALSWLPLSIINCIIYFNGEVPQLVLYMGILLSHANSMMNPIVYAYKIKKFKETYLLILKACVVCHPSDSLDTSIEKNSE
Experiment: Irreversible inhibition of […]-AB-MECA binding to human adenosine A3 receptor at 10 nM
Mark false (0) for inhibition values under 10%, and true (1) for everything at or above.

Exercise: hey, is inhibition for this one >= 10%? Cn1cc2c(nc(NC(=O)Nc3ccc(N(CCCl)CCCl)cc3)n3nc(-c4ccco4)nc23)n1
Key: true (1)

Exercise: hey, is inhibition for this one >= 10%? CCn1cc2c(nc(NC(=O)Nc3ccc(S(=O)(=O)F)cc3)n3nc(-c4ccco4)nc23)n1
Key: true (1)

Exercise: hey, is inhibition for this one >= 10%? CCCCn1cc2c(nc(NC(=O)Nc3ccc(S(=O)(=O)F)cc3)n3nc(-c4ccco4)nc23)n1
Key: true (1)

Exercise: hey, is inhibition for this one >= 10%? CCCCn1cc2c(nc(NC(=O)Nc3ccc(N(CCCl)CCCl)cc3)n3nc(-c4ccco4)nc23)n1
Key: false (0)

Exercise: hey, is inhibition for this one >= 10%? CCn1cc2c(nc(NC(=O)Nc3ccc(N(CCCl)CCCl)cc3)n3nc(-c4ccco4)nc23)n1
Key: false (0)

Exercise: hey, is inhibition for this one >= 10%? CCCn1cc2c(nc(NC(=O)Nc3ccc(N(CCCl)CCCl)cc3)n3nc(-c4ccco4)nc23)n1
Key: true (1)

Exercise: hey, is inhibition for this one >= 10%? CCCn1cc2c(nc(NC(=O)Nc3ccc(S(=O)(=O)F)cc3)n3nc(-c4ccco4)nc23)n1
Key: true (1)

====

Biological target: Adenosine receptor A3 (Homo sapiens) (UniProt P0DMS8)
Sequence (whole entry): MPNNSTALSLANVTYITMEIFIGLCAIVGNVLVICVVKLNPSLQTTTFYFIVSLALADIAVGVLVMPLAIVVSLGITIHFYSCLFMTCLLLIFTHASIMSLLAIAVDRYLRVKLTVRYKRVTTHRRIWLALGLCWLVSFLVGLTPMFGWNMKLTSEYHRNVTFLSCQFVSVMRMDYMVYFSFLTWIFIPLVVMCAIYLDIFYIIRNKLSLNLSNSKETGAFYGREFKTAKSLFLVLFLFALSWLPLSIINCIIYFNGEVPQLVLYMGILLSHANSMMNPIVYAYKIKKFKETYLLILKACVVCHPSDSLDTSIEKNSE
Experiment: Irreversible inhibition of […]-AB-MECA binding to human adenosine A3 receptor at 1 nM
For each record, write down the corresponding inhibition.
The reply should be a number in %, with the unit left off.

Exercise: Entry CCCn1cc2c(nc(NC(=O)Nc3ccc(S(=O)(=O)F)cc3)n3nc(-c4ccco4)nc23)n1 has what inhibition?
Key: 47

Exercise: Entry CCn1cc2c(nc(NC(=O)Nc3ccc(N(CCCl)CCCl)cc3)n3nc(-c4ccco4)nc23)n1 has what inhibition?
Key: 0

Exercise: Entry Cn1cc2c(nc(NC(=O)Nc3ccc(N(CCCl)CCCl)cc3)n3nc(-c4ccco4)nc23)n1 has what inhibition?
Key: 0

Exercise: Entry CCCn1cc2c(nc(NC(=O)Nc3ccc(N(CCCl)CCCl)cc3)n3nc(-c4ccco4)nc23)n1 has what inhibition?
Key: 7.8

Exercise: Entry CCCCn1cc2c(nc(NC(=O)Nc3ccc(N(CCCl)CCCl)cc3)n3nc(-c4ccco4)nc23)n1 has what inhibition?
Key: 0

Exercise: Entry CCn1cc2c(nc(NC(=O)Nc3ccc(S(=O)(=O)F)cc3)n3nc(-c4ccco4)nc23)n1 has what inhibition?
Key: 4.1

Exercise: Entry CCCCn1cc2c(nc(NC(=O)Nc3ccc(S(=O)(=O)F)cc3)n3nc(-c4ccco4)nc23)n1 has what inhibition?
Key: 31
